// values below are reported self-cleavage
B1: LINE1-full (parent)
chain: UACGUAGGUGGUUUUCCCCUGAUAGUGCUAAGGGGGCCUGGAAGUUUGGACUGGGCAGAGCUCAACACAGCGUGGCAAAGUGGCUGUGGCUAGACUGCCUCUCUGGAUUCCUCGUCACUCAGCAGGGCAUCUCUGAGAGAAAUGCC

- Variants of: B1
- assayComment: self-cleavage, relative activity (ratio to wild type); higher = more cleavage; in vitro, sequencing; the parent is a self-cleaving ribozyme
The response must contain the number and no unit.

Here is how some variants turned out for self-cleavage.
- UACGUAGGUGGUUUUCCCCUGAAAGUGCUAAGGGGGCCUGGAAGUUUGGACUGGGCAGAGCUCUACACAGCGUGGCAAAGUGGCUGUGGCUAGACUGCCUCUCUGGAUUCCUCGUCACUCAGCAGGGCAUCUCUGAGAGAAAUGCC: 0.34
- CACGUAGGUGGUUUUCCCCUGAUAGUGCUAAGGGGGCCUGGAAGUUUGGACUGGGCAGAGCUCAACACAGCGUGGCAAAGUGGCUGUGGCUAGACUGCCUCUCUGGAUUCCUCGUCACUCAGCAGGGCAUCUCUGAGAGAAGUGCC: 0.99
- UACGUAGGUGGUUUUCCCCUGAUAGUGCUAAGGGGGCCUGGAAGUUUGGACUGGGCAGAGCUCAACACAGCGUGGCAAAGUGGCUGUGGCUAGACUGCCUCUCUGGAUUCCUCGUUACUCAGCAGGGCAUCUCUGAGAGAAAUGCC: 1.29
- UACGUAGGUGGUUUUCCCCUGAUAGUGCUAAGGGGGCCUGGAAGUUUGGACUGGGCAGAGCUCAACACAGCGUGGCAAAGCGGCUGUGGCUAGACUGCCUCUCUGGAUUCCUCGUCACCCAGCAGGGCAUCUCUGAGAGAAAUGCC: 1.84

Problem: # input variant: UACGUAGGUGGUUUUCCCCUGAUGGUGCUAAGGGGGUCUGGAAGUUUGGACUGGGCAGAGCUCAACACAGCGUGGCAAAGUGGCUGUGGCUAGACUGCCUCUCUGGAUUCCUCGUCACUCAGCAGGGCAUCUCUGAGAGAAAUGCC ; wanted: its self-cleavage
Result: 0.83

Problem: Could you do the same for UACAUAGGUGGUUUUCCCCUGACAGUGCUAAGGGGGCCUGGAAGUUUGGACUGGGCAGAGCUCAACACAGCGUGGCAAAGUGGCUGUGGCUAGACUGCCUCUCUGGAUUCCUCGUCACUCAGCAGGGCAUCUCUGAGAGAAAUGCC , please?
Result: 1.11

Problem: Likewise for UACGUAGGUGGUUUUCCCCUGAUAGUGCUAAGGGGGCCUGGAAGUUUGGACUGGGCAGAGCUCAACACGGCGUGGCAAAGUGGCUGUGGCUAGACUGCCUCUCUGGAUUCCUCGUCACUCAGCAGGGCAUCUCUGAGAGAAAUGCA ?
Result: 0.77

Problem: What do we get for UACGUAGGUGGUUUUCCCCUGAUAGUGCCAAGGGGGCCUGGAAGUUUGGACUGGGCAGAGCUCAACACAGCGUGGCAAAGUGGCUGUGGCUAGACUGCCUCUCUGGAUUCCUUGUCACUCAGCAGGGCAUCUCUGAGAGAAAUGCC ?
Result: 1.44

Problem: Now the same for CACGUAGGUGGUUUUCCCCUGAUAGUGCUAAGGGGGCCUGGAAGUUUGGACUGGGCAGAGCUCAACACAGCGUGGCAAAGCGGCUGUGGCUAGACUGCCUCUCUGGAUUCCUCGUCACUCAGCAGGGCAUCUCUGAGAGAAAUGCC
Result: 0.85

Problem: Also UACGUAGGUGGUUUUCCCCUGAUAGUGCUAAGGGGGCCUGGAAGUUUAGACUGGGCGGAGCUCAACACAGCGUGGCAAAGUGGCUGUGGCUAGACUGCCUCUCUGGAUUCCUCGUCACUCAGCAGGGCAUCUCUGAGAGAAAUGCC ?
Result: 0.6

Problem: What do we get for UACGUAGGUGGUUUUCCCCUGAUAGUGCUAAGGGGGCCUGGAAGUUUGGACUGGGCAGAGCUCAACACAGCGUGGCAAAGUGGCUGUGGCUAGACUGCCUCUCUGGAUUCCUCGUCACUCAGCAGGGCAUCUCUGAGAGAUAAGCC ?
Result: 0.6

Problem: Same question, UACGUAGGUGGUUAUCCCCUGAUAGUGCUAAGGGGGCCUGGAAGUUUGGACUGGGCAGAGCUCAACACAGCGUGGCAAAGUGGCUGUGGCUAGACUGCCUCUCUGGAUUCCUCGUCACUCAGCAGGGCAUCUCCGAGAGAAAUGCC this time
Result: 1.62

Problem: Next record, please: UACGUAGGUGGUUUUCCCCUGAUAGUGCUAAGGGGGCCUGGAAGUUUGGACUGGGCAGAGCUCAACACAGCGUGGCAAAGUGGCUGUGGCUAGACUGCCUCCCGGGAUUCCUCGUCACUCAGCAGGGCAUCUCUGAGAGAAAUGCC
Result: 1.6

Problem: And for UACGUAGGUGGUUUUCCCCUGAUAGUGCUAAGGGGGCCUGGAUGUUUGGACAGGGCAGAGCUCAACACAGCGUGGCAAAGUGGCUGUGGCUAGACUGCCUCUCUGGAUUCCUCGUCACUCAGCAGGGCAUCUCUGAGAGAAAUGCC ?
Result: 1.04

Problem: Field entry: UACGUAGGUGGUUUUCCCCUGCUAGUGCUAAGGGGGCCUGGAAGUUUGGACUGGGCAGAGCUCAACACAGCGUGGCAAAGUGGCUGUGGCUAGACUGCCUCUCUGGAUUCCUCGUCACUCAGCAGGGCAUCUCUGAGAGAAGUGCC
Result: 1.27
